Provenance of the data: ChEMBL document CHEMBL4196123

assay.target: PI3-kinase p110-alpha/p85-alpha (Homo sapiens)
Sequence (P27986 whole entry): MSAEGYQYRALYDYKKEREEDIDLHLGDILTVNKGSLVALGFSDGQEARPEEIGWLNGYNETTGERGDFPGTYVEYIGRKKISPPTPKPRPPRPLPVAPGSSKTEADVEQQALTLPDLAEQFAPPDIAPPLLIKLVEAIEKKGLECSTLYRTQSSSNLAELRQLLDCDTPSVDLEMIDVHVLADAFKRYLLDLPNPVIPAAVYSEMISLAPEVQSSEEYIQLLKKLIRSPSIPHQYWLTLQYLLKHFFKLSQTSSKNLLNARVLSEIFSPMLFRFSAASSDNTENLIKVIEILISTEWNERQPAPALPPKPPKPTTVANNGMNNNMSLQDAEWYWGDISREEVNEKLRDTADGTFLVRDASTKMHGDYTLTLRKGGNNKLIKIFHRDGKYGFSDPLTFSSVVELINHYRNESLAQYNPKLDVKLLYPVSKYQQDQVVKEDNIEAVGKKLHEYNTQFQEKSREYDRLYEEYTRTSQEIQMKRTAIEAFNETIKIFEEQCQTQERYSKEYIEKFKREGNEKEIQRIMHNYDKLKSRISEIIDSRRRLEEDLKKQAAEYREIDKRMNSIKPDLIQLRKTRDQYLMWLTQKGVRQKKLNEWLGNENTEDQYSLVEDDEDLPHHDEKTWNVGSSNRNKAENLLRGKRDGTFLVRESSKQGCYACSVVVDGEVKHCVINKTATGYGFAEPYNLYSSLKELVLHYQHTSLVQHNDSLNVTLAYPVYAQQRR
Sequence (P42336 whole entry): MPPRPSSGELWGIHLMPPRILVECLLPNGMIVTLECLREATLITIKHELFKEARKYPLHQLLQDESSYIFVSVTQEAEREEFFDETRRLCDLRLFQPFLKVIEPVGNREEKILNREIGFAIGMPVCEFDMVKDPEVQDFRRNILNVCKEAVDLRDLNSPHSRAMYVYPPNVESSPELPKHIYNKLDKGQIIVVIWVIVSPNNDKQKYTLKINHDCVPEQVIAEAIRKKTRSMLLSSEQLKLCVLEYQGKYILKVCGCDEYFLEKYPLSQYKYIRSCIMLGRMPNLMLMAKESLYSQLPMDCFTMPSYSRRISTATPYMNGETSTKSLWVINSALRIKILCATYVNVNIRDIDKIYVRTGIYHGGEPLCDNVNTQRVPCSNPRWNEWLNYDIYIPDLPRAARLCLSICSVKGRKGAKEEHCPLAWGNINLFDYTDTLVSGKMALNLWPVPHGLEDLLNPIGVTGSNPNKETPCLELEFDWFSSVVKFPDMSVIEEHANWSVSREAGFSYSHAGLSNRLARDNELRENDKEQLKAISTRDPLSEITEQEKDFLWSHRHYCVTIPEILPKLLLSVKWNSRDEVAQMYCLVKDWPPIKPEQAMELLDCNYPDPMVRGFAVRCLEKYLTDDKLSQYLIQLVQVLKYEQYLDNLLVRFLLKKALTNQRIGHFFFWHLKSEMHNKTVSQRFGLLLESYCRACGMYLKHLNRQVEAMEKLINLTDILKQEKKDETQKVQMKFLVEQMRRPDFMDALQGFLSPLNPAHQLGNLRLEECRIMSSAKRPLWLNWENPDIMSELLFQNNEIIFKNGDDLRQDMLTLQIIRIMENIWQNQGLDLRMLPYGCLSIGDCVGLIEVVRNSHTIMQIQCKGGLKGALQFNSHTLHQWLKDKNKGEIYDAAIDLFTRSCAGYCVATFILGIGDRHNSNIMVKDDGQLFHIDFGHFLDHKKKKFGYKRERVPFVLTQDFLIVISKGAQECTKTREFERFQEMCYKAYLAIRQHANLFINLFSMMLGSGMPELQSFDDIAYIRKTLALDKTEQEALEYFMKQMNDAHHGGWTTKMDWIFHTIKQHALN
procedure.details: Inhibition of recombinant human full length N-terminal His-tagged p110alpha/p85alpha expressed in baculovirus expression system using PIP2 as substrate measured after 1 hr by Alexa633 Tracer-based fluorescence polarization assay
I'd appreciate it if you could supply pIC50 values for the items below.
# pIC50: negative log10 of molar concentration; output just the value

Task item: Record request: pIC50 value, item C[C@H]1COCCN1c1nc(-c2cnc(N)cc2C(F)(F)F)cc(C2(S(C)(=O)=O)CCCC2)n1
Reply: 7.66

Task item: May I ask what pIC50 has been recorded for CC(C)C(c1cc(-c2cnc(N)cc2C(F)(F)F)nc(N2CCOCC2)n1)S(C)(=O)=O (stereo not given) ?
Reply: 6.66

Task item: Any idea what its pIC50 is? The molecule is C[C@H]1COCCN1c1nc(-c2cnc(N)cc2C(F)(F)F)cc(C2(S(C)(=O)=O)CCC2)n1
Reply: 8.22

Task item: # lookup: pIC50 of C[C@@H]1COCCN1c1nc(-c2cnc(N)cc2C(F)(F)F)cc(C2(S(C)(=O)=O)CC2)n1
Reply: 6.65

Task item: Need pIC50, item CC(C)(c1cc(-c2cnc(N)cc2F)nc(N2CCOCC2)n1)S(C)(=O)=O
Reply: 7.18

Task item: I'd like to know its pIC50. The molecule in question is CS(=O)(=O)C(F)(F)c1cc(-c2cnc(N)cc2C(F)(F)F)nc(N2CCOCC2)n1
Reply: 7.60

Task item: Any idea what its pIC50 is? The molecule is CS(=O)(=O)C(F)c1cc(-c2cnc(N)cc2C(F)(F)F)nc(N2CCOCC2)n1 (stereo not given)
Reply: 7.25

Task item: Which measured pIC50 value corresponds to CC(C)(c1cc(-c2cnc(N)cc2C(F)(F)F)nc(N2CCOCC2)n1)S(=O)(=O)c1ccccc1 ?
Reply: 8.05

Task item: Entry CS(=O)(=O)C1(c2cc(-c3cnc(N)cc3F)nc(N3CCOCC3)n2)CC1 has what pIC50?
Reply: 7.39

Task item: Fill in: pIC50 of C[C@H]1COCCN1c1nc(-c2cnc(N)cc2F)cc(C(C)(C)S(C)(=O)=O)n1 is ___
Reply: 7.70

Task item: GET /values?readout=pIC50&item= CS(=O)(=O)C1(c2cc(-c3cnc(N)cc3C(F)(F)F)nc(N3CCOCC3)n2)CCC1
Reply: 7.82

Task item: Quick check: pIC50 of Nc1cc(C(F)(F)F)c(-c2cc(C3(S(=O)(=O)c4ccc(F)cc4)CC3)nc(N3CCOCC3)n2)cn1 ?
Reply: 7.24

Task item: So what does the record say about pIC50 for CS(=O)(=O)C1(c2cc(-c3cnc(N)cc3C(F)(F)F)nc(N3CCOCC3)n2)CCCCC1 ?
Reply: 6.49

====

assay.target: Voltage-gated inwardly rectifying potassium channel KCNH2 (Homo sapiens)
Sequence (Q12809 whole entry): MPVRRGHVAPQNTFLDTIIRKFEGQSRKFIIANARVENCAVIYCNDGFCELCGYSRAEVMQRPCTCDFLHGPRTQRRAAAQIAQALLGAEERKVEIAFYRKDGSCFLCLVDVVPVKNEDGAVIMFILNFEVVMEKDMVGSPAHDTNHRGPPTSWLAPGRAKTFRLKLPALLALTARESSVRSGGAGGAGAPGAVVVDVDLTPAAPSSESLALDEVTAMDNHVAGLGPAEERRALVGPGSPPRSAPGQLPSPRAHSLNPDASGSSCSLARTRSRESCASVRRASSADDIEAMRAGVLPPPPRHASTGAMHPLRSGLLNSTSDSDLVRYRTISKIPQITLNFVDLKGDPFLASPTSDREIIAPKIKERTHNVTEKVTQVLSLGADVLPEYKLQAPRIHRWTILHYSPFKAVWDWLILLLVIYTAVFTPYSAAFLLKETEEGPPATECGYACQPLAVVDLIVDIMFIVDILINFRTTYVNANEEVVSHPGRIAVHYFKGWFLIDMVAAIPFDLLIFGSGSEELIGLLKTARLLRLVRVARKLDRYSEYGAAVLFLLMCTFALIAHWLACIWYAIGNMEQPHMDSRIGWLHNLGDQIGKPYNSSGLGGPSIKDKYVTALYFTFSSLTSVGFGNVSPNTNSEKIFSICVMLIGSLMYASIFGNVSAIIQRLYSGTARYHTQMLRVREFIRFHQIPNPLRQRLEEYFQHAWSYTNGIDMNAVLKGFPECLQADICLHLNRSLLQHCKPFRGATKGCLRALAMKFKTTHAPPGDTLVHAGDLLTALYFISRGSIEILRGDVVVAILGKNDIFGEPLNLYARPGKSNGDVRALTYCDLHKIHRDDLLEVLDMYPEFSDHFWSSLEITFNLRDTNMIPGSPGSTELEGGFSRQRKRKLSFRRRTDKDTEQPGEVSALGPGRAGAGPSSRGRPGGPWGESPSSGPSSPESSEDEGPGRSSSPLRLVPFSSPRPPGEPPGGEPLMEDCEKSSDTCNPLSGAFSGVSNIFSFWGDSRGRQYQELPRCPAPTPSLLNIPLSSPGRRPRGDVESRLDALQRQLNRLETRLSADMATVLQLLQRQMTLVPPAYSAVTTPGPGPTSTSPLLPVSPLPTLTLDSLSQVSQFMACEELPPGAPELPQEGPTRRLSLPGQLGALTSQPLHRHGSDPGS
procedure.details: Inhibition of recombinant human ERG expressed in CHO cells by automated whole cell patch clamp Qpatch method
pIC50: −log10 of the molar value.
observed.property: pIC50

Task item: Would you kindly share the measured pIC50 for C[C@H]1COCCN1c1nc(-c2cnc(N)cc2F)cc(C2(S(C)(=O)=O)CC2)n1 ?
Reply: < 4.52

====

procedure.details: Intrinsic clearance in human liver microsomes at […] pretreated up to 45 mins followed by NADPH addition and measured by LC-MS/MS analysis
Type: ADME, microsome
measurement.parameters: read-out: CLH
observed.property: CLint scaled

Task item: Could you share which CLint scaled value was measured for CC(C)(c1cc(-c2cnc(N)cc2F)nc(N2CCOCC2)n1)S(C)(=O)=O ?
Reply: 5 to 16 mL/min/kg

Task item: Endpoint output: CLint scaled of CS(=O)(=O)C1(c2cc(-c3cnc(N)cc3C(F)(F)F)nc(N3CCOCC3)n2)CC1 . Value?
Reply: 9.86 mL/min/kg

Task item: Quick one: CLint scaled for C[C@H]1COCCN1c1nc(-c2cnc(N)cc2F)cc(C2(S(C)(=O)=O)CC2)n1 ?
Reply: 5 to 16 mL/min/kg

Task item: // lookup CLint scaled for C[C@H]1COCCN1c1nc(-c2cnc(N)cc2F)cc(C(C)(C)S(C)(=O)=O)n1
Reply: 5 to 16 mL/min/kg

Task item: # CLint scaled lookup, item CS(=O)(=O)C1(c2cc(-c3cnc(N)cc3F)nc(N3CCOCC3)n2)CC1
Reply: 5 to 16 mL/min/kg

Task item: Look up CLint scaled for this compound: Nc1cc(C(F)(F)F)c(-c2cc(N3CCOCC3)nc(N3CCOCC3)n2)cn1
Reply: 10.9 mL/min/kg
